# experiment.summary: in vitro
# Assay type: cell-based, Human
# cond: human; HEp-2 cells, 5 or 6 days; read-out: Cytotoxicity CC50
readout.name: CC50

Problem: Looking for the measured CC50 of Cc1cnc(N2CC3(CCOCC3)C2)c(C(=O)Nc2ccc(C(=O)N3CCc4cc(C(=O)Nc5c(C)cccc5F)sc4-c4ccccc43)cc2)c1 , can you help?
Solution: > 14 µM
